The following compounds are shown together with reported inhibition at 100 µM values.
experiment: in vitro; conditions: human, HEK293 cells

>>> df
                                   compound   val
0  CN(CCOc1ccc(CC2SC(=O)NC2=O)cc1)c1ccccn1 (configuration not stated) [ROSIGLITAZONE]  < 5%

Attention now shifts to the item below.
Which inhibition at 100 µM is listed for Cc1cccc(Nc2cc(Cl)nc(SCC(=O)O)n2)c1C [PIRINIXIC ACID] ? < 5%

Attribution: ChEMBL document CHEMBL3739336
